// reported GI50 per item
System: RKO
experimental protocol: Cell growth inhibition assay (MTS)
Format: cell-based
condition parameters: Homo sapiens, 72 hours

# smiles record, GI50 (nM)
data = [
    ("Cn1ccc(S(=O)(=O)N2CCC(Nc3nccc(-c4c(-c5cccc(O)c5)nc5occn45)n3)CC2)n1", 372),
    ("O=S(=O)(c1ccc(F)cc1)N1CCC(Nc2nccc(-c3c(-c4cccc(O)c4)nc4occn34)n2)CC1", 283),
    ("Cn1ccc(S(=O)(=O)N2CCC[C@@H](Nc3nccc(-c4c(-c5ccc(F)c(O)c5)nc5occn45)n3)C2)n1", 52),
    ("Cn1ccc(S(=O)(=O)N2CCC[C@@H](Nc3nccc(-c4c(-c5cccc(O)c5)nc5sccn45)n3)C2)n1", 122),
    ("Cn1ccc(S(=O)(=O)N2CCC[C@@H](Nc3nccc(-c4c(-c5cccc(O)c5)nc5occn45)n3)C2)n1", 95),
]
